Taken from PubChem BioAssay (NCI).

Test system: HCT-15 colon
Experiment: NCI-60 one-dose screen, 48 h
Conditions: 10 µM unless noted
About 83,000 compounds went through this panel and 20% of them were active in at least one assay; those are over-represented in the sample as a whole. The source made the active and inactive calls. How the source made its calls: active means growth percent below 10; inactive means the rest.
Outcome field: choose from active, inactive

Reference set, count: 3
MOLECULE	QUALITATIVE LABEL
CCN1CCN(c2ccc(Nc3ncc4ccc5ncn(C(C)C)c5c4n3)nc2)CC1	active
Cc1ccc(S(=O)(=O)N2CCc3ccc(O)c4c3C2Cc2cc(Cl)ccc2-4)cc1 (stereo not given)	inactive
COc1cc2cc(Oc3ccc(NC(=O)Nc4ccc(Cl)c(C(F)(F)F)c4)cc3)c(C)nc2cc1OCCN1CCCCC1	active

Challenge: Assay outcome for COc1ccc(-n2ncc3c4nc(OC)c(S(=O)(=O)c5ccccc5)cc4ccc32)cc1 : what was it?
Response given: inactive

Challenge: Assay outcome for CCOC(=O)C(CC(c1ccccc1)N1CCCCC1)[N+](=O)[O-] (stereo not given) : what was it?
Response given: inactive

Challenge: Assay outcome for Cc1cc(=O)c2c(C)ccc(C)c2[nH]1 : what was it?
Response given: inactive

Challenge: Assay outcome for Cc1nc2cc(Nc3nc(N4CCCCC4)nc(N4CCOCC4)n3)ccc2n1Cc1ccccc1 : what was it?
Response given: inactive

###

System: NCI-H226 lung
Assay: NCI-60 one-dose screen, 48 h (100 = growth as untreated, 0 = no growth, -100 = all killed)
Conditions: 10 µM
This is part of a sample that, as a whole, favours compounds with a hit. Of some 83,000 tested, about 20% had one in any assay.
REPORTED METRIC: growth (%)
One number for each entry, in %.

Take a look at these entries with their results.
MOLECULE	growth [%]
C[C@H]1C(=O)C23CCC1C[C@@]21O[C@@H]2C(C)(C)C=CC(=O)C23COC1=O	94.2
O=C(COc1ccc(/C=C2\CSc3ccccc3C2=O)cc1)c1ccc(Cl)cc1	97.9
COc1cccc(C2C3=C(COC3=O)N(CCO)c3cc4c(cc32)OCO4)c1 (stereo not drawn)	51.6
O/N=C/c1cccs1	107
Cc1nc2cc(Nc3nc(N4CCCCC4)nc(N4CCOCC4)n3)ccc2n1Cc1ccccc1	28.4

Respectfully, I request growth for each entry included below.
1. C=CC[P+](c1ccccc1)(c1ccccc1)c1ccccc1
2. O=C(CCCCCCC(=O)Nc1ccc2c(c1)/C(=C/c1ccc[nH]1)C(=O)N2)NO
3. CC(C)NCC(O)COc1ccc(CCOCC2CC2)cc1 (stereo not drawn)
4. FCOC(C(F)(F)F)C(F)(F)F
5. COc1ccc(NC(=O)COc2ccccc2)c(C(N)=O)c1
6. C[C@@H](Oc1cc(-c2cnn(C3CC4(CCCNC4)C3)c2)cnc1N)c1c(Cl)ccc(F)c1Cl (stereo partly drawn)

Response given:
1. 74.1
2. 27.6
3. 90.7
4. 106
5. 71.6
6. 58.8

Respectfully, I request growth for each entry included below.
1. Cc1nn(-c2ccccc2)c2nc3nc4c(c(N)c3c(-c3ccc(Cl)cc3)c12)CCCC4
2. O=C1c2cc(S(=O)(=O)O)ccc2C(=O)c2c1cccc2[N+](=O)[O-]
3. CCSc1nnc2c3cc(Br)ccc3n(C)c2n1
4. FC(F)(F)c1cc(CNc2nc(Cl)ncc2Br)cc(C(F)(F)F)c1
5. NC1=NC(c2ccccc2OS(=O)(=O)c2ccc(Br)cc2)n2c(nc3ccccc32)N1 (stereo not drawn)
6. CSc1ccc(OC(C)=O)cc1C
7. CCN(C(=O)c1ccc2c3c(cccc13)C=C2)c1ccccc1
8. CCCCCCCCCCCCSC1=CC(=O)C=CC1=O

Response given:
[83.4, 111, 93.6, 93.9, 102, 98.3, 93.3, 91.5]

###

System: NCI-H322M lung
Experiment: NCI-60 one-dose screen, 48 h (100 = growth as untreated, 0 = no growth, -100 = all killed)
Details: 10 µM unless noted
This is part of a sample that, as a whole, favours compounds with a hit. Of some 83,000 tested, about 20% had one in any assay.
Provide the recorded growth for the entries that follow.
One number for each entry, in %.

Take a look at these entries with their results.
COMPOUND	growth, %
Clc1ccc(Nc2nc(Nc3ccccc3)nc(Nc3ccc(-c4cc(-c5ccc(Cl)cc5)on4)cc3)n2)cc1	77.6
O=C1/C(=C/c2ccc(Cl)cc2)N=C(c2ccccc2)N1CCc1cccs1	82.2
O=c1[nH]c(=S)c2c(n1CCCO)CCC2	108
COC(=O)c1ccc(C(=O)Nc2ccccc2N)cc1	66.5

Respectfully, I request growth for each entry included below.
1. CCCCC1COc2cccc3c(SCC(=O)N(C)c4cccc5ccccc45)cc[n+]1c23 (stereo not given)
2. O=S(=O)(Nc1ccccc1Cl)c1ccc(-c2cnc(C3CC3)o2)cc1

Response given:
110
42.3

###

Provide the recorded growth for the entries that follow.
Tested on: MDA-MB-231 breast
Test: NCI-60 one-dose screen, 48 h (100 = growth as untreated, 0 = no growth, -100 = all killed)
Details: 10 µM unless noted
About 83,000 compounds went through this panel and 20% of them were active in at least one assay; those are over-represented in the sample as a whole.
One number for each entry, in %.

Take a look at these entries with their results.
COMPOUND	QUANTITY UNIT	growth
O=C1NC(=O)C(CSc2ccccc2)(c2ccccc2)N1 (stereo unspecified)	%	104
O=c1ccc2ccccc2o1	%	100
CCOC(=O)n1cc(C2=C(c3cn(C)c4ccccc34)COC2=O)c2ccccc21	%	25.5
Cc1cc(=O)oc2c1ccc1oc(C(=O)c3ccccc3)c(C)c12	%	76.3
COc1ccc(C2=NOC(CC(=O)N(CCO)CCO)C2)cc1OC1CCCC1 (stereo unspecified)	%	103

The recorded growth with MDA-MB-231 breast for O/N=C/c1cccs1 was 112

###

System: HT29 colon
Test: NCI-60 one-dose screen, 48 h (100 = growth as untreated, 0 = no growth, -100 = all killed)
Conditions: 10 µM unless noted
This is part of a sample that, as a whole, favours compounds with a hit. Of some 83,000 tested, about 20% had one in any assay.
Provide the recorded growth for the entries that follow.
Give bare numbers, in %.

MOLECULE	QUANTITY UNIT	growth
CCOC(=O)c1sc(NC(=O)CN2CCC(Cc3ccccc3)CC2)nc1C	%	79.8

Respectfully, I request growth for each entry included below.
1. CCN1CCN(c2ccc(Nc3ncc4ccc5ncn(C(C)C)c5c4n3)nc2)CC1
2. NS(=O)(=O)c1ccc(C(=O)N/N=C(\CS(=O)(=O)c2ccccc2)c2cc3cc(Br)ccc3o2)cc1

Response given:
1: 5.37; 2: 97.4

Respectfully, I request growth for each entry included below.
1. O=C(NC1CC1)c1cc2n(n1)CC(c1ccccc1)N2 (stereo unspecified)
2. Cc1cc(=O)oc2c1ccc1oc(C(=O)c3ccccc3)c(C)c12
3. CCCCCCCC/C=C\CCCCCCCCOc1cccc(CC(=O)NCC[N+]2(C)CCOCC2)c1

Response given:
[107, 51.8, 53.5]

Respectfully, I request growth for each entry included below.
1. C=C[C@H]1C[C@@H]2C[C@@H]3[C@H]4C/C=C\C(=O)NCCCC5NC(=O)C(=C(O)/C=C/[C@@H]4CC(=O)[C@H]3[C@@H]2[C@H]1C)C5=O (stereo partly specified)
2. COc1cc(-c2nc(SC(C)C)nc(Nc3ccccc3C)c2C#N)cc(OC)c1OC

Response given:
1: -76; 2: 109

Respectfully, I request growth for each entry included below.
1. O=C(NCc1ccc(F)cc1)C1CN(c2ccc(Cl)cc2)N(c2ccc(Cl)cc2)C1=O (stereo unspecified)
2. CCCCC1COc2cccc3c(SCC(=O)N(C)c4cccc5ccccc45)cc[n+]1c23 (stereo unspecified)
3. COc1ccc(C2SC(C)C(=O)N2CCc2cccs2)cc1OC (stereo unspecified)
4. CN1CCN(c2ccc3nc(-c4ccc5nc(-c6ccc(C(F)(F)F)cc6)[nH]c5c4)[nH]c3c2)CC1

Response given:
1: 25.6; 2: 103; 3: 91.6; 4: 29.2

###

System: RPMI-8226 leukemia
Experiment: NCI-60 one-dose screen, 48 h
Conditions: 10 µM
This is part of a sample that, as a whole, favours compounds with a hit. Of some 83,000 tested, about 20% had one in any assay. Activity calls are given as the source filed them. Rule for the calls: active = growth percent below 10; inactive = the rest.
Outcome field: choose from TRUE for active, FALSE for inactive

Reference set, count: 4
COMPOUND	QUALITATIVE LABEL
COc1cc(C(=O)/C=C/c2c(-c3cccs3)nc3sccn23)cc(OC)c1OC	TRUE
COc1nc2c(cc1S(=O)(=O)c1ccccc1)CCc1c-2cnn1-c1ccccc1Cl	FALSE
COc1cccc(C2CC(=O)Nc3cc4c(cc32)OCO4)c1OC (stereo unspecified)	FALSE
CCN(CC)c1ccc2c(c1)OS(=O)(=O)N=C2	FALSE

Challenge: Assay outcome for O/N=C/c1cccs1 : what was it?
Response given: FALSE

Challenge: Assay outcome for Cc1ccc(S(=O)(=O)N2CCc3ccc(O)c4c3C2CCc2ccccc2-4)cc1 (stereo unspecified) : what was it?
Response given: FALSE
